# measurement_target: His-LAMA4 as used in Example 6 (species not stated) (Homo sapiens (Human)) (UniProt Q16363)
# test_details: ForteBio BLI, LAMA-His on anti-His sensor, antibody 8.33 nM
property: Response

Examples with answers:
| binder | Response |
| --- | --- |
| chimeric 19C12 antibody (antibody, V domains shown) VH: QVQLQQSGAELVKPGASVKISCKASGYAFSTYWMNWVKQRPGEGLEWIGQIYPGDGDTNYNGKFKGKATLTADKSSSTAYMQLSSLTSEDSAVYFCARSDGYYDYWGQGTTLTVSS VL: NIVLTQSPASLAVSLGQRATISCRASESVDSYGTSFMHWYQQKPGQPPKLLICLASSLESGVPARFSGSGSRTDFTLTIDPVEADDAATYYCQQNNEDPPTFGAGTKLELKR | 1.15 |
| humanized 19C12 antibody H2L4 (antibody, V domains shown) VH: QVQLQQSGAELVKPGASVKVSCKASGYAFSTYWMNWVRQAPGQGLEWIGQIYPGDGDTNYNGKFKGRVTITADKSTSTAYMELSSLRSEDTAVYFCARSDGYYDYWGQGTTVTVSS VL: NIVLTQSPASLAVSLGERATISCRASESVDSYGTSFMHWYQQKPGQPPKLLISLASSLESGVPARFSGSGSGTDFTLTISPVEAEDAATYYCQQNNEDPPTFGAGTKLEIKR | 1.18 |

Please turn your attention to the following entry.
Query: Report Response for humanized 19C12 antibody H3L6 (antibody, V domains shown) VH: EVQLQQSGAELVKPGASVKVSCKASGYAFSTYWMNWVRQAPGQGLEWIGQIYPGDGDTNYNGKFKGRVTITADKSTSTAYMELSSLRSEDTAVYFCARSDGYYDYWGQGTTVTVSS VL: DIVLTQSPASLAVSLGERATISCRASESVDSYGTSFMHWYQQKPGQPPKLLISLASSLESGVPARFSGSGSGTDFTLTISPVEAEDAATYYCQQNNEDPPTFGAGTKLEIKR please.
Result: 1.2

The reported measurements were obtained from patent US20170158755A1.
